Molecular target: canine CD3 on canine T cells (canine PBMC) (canine, UniProt P27597 22-202)
Sequence (P27597 22-202 limits assumed, chain 1 of 3): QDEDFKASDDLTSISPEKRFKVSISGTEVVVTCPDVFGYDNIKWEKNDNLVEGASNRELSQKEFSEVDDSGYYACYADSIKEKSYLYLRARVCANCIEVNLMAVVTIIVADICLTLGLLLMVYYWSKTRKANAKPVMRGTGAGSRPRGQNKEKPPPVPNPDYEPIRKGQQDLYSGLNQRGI
Sequence (chain, as listed by the source limits assumed, chain 2 of 3): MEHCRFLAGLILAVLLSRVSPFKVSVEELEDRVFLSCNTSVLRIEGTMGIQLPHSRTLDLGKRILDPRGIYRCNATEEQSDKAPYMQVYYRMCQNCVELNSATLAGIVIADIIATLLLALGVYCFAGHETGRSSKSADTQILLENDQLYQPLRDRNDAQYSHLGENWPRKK
Sequence (chain, as listed by the source limits assumed, chain 3 of 3): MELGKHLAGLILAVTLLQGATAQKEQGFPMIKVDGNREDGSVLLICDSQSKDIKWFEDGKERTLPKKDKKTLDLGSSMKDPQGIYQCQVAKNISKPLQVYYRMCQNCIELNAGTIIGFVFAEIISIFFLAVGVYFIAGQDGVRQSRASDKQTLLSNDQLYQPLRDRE
Assay: cell-based or functional assay
Readout: Ki67 Proliferation, Day 6, PB
Could you respond with only the numeric value?

Consider the following illustrative entries.
Binder | Ki67 Proliferation, Day 6, PB
PMX191 (monospecific anti-canine CD3, canine IgG-B effector function deficient Fc) (antibody, V domains shown) VH: EVQLVESGGDLVKPAGSLRLSCVASGFTFSDYSMSWVRQGPEKGLQLVAGMNSDGSTTYYTDAVRGRFTISRDNAKNTMYLQMNSLRDEDTAIYYCAKGAAAPDYWGQGTLVTVSS VL: SYELTQPPSVNVTLRETAHITCGGDRIGSKYVQWIQQIPGQAPVVIIYKDNNRPTGIPERFSGANSGNTATLTISGALAEDEADYYCQVGDNYTWVFGEGTQLTVL | 0.35
PMX192 (monospecific anti-canine CD3, canine IgG-B effector function deficient Fc) (antibody, V domains shown) VH: EVQLVESGGDLVKPAGSLRLSCVASGFTFSDYSMSWVRQAPEKGLQLVAGINGDGSTTYYTDAVKGRFTISRDNAKNTVYLQMNSLRAEDTAMYYCAKGAGTGDFWGQGTLVTVSS VL: SYELTQPPSVNVTLRETAHITCGGASIGRKYVQWIQQIPGQAPVVIIYKDSNRPTGIPERFSGANSGNTATLTISGALAEDEADYYCQVGDSGAWVFGEGTQLTVL | 0.66
PMX183 (monospecific anti-canine CD3, canine IgG-B effector function deficient Fc) (antibody, V domains shown) VH: ELTLQESGPGLVKPSQTLSLTCVVSGGSVTNSYYWNWIRQRPGRELEWMGYWTGGTKYNPAFQGRISISADTAKNQFSLQLTSMTTEDTAVYYCARDRDRRVPHAYGYWGQGTLVTVSS VL: SYVLTQLPSKNVTLKQPAHITCGGDNIGSKSVHWYQQKLGQAPVLIIYYDSSRPTGIPERFSGANSGNTATLTISGALAEDEADYYCQVWDSSAKASVFGGGTHLTVL | 0.36
PMX178 (monospecific anti-canine CD3, canine IgG-B effector function deficient Fc) (antibody, V domains shown) VH: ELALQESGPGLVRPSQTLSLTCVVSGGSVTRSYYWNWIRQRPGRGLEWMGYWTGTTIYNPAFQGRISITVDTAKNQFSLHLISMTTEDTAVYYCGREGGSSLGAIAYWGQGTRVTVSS VL: SYVLTQLPSKNVTLKQPAHITCGGDNIGRKSVHWYQQKLGQAPVLIIYYDSSRPTGIPERFSGANSGNTATLTISGALAEDEADYYCQVWDSSAKAAVFGGGTHLTVL | 1.13

Query :: Quick one: Ki67 Proliferation, Day 6, PB of PMX158 (monospecific anti-canine CD3, canine IgG-B effector function deficient Fc) (antibody, V domains shown) VH: ELTLQESGPGLVKPSQTLSLTCVVSGGSVTRSYYWNWIRQRPGRGLEWMGYWTGTTNYNPAFQGRISITADTAKNQCSLQLSSMTTEDTAVYYCAREGGKLLGAFGHWGQGTLVTVSS VL: SYVLTQLPSKNVTLKQPAHITCGGDKIGSKSVHWYQQKLGQAPVLIIYYDSSRLTGIPERFSGANSGNTATLTISGALAEDEADYYCQVWDSSAKASVFGGGTHLTVL ?
Result :: 0.54

Data credit: patent US20240209086A1
